Please respond with reported viability, T/C for every item in the list.
- Tested on: 699152-130-R-J1-PDC complex spheroid viability
- Protocol summary: Anticancer human tumor 699152-130-R-J1-PDC patient-derived pancreatic carcinoma cell line growth inhibition [POLQ]
- Test context: second compound 3.16 µM; first compound 0.1 µM; stronger effect = lower value

Compound	Meas value
COc1cc(C2c3cc4c(cc3C(OC3OC5COC(C)OC5C(O)C3O)C3COC(=O)C23)OCO4)cc(OC)c1O (stereo not drawn) + Nc1ccc(C#CCN(C(=O)Cc2ncc(C(F)(F)F)cc2C(F)(F)F)c2ccc(F)cc2)nn1	85%
O=C(c1cc(Cc2n[nH]c(=O)c3ccccc23)ccc1F)N1CCN(C(=O)C2CC2)CC1 + COC1C(OC(N)=O)C(O)C(Oc2ccc3c(O)c(NC(=O)c4ccc(O)c(CC=C(C)C)c4)c(=O)oc3c2C)OC1(C)C	42.9%

Note: attention shifts to another entry.
# viability, T/C lookup, item CC[C@@]1(O)C(=O)OCc2c1cc1n(c2=O)Cc2cc3c(CN(C)C)c(O)ccc3nc2-1 + Nc1ccc(C#CCN(C(=O)Cc2ncc(C(F)(F)F)cc2C(F)(F)F)c2ccc(F)cc2)nn1
62.2%

###

- Test system: 699152-130-R-J1-PDC complex spheroid viability
- Protocol summary: Anticancer human tumor 699152-130-R-J1-PDC cell line growth inhibition [POLQ];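 also: spheroids exposed to agents for 7 days before viability reading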;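 as to viability, T/C: percent of DMSO vehicle control viability so 100% = vehicle and 0% = no viable signal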
- Test context: second compound 3.16 µM; first compound 0.316 µM; stronger effect = lower value
Threshold check on viability, T/C: strictly below 90% is class 1; on or above 90% is class 0.

Solved cases below.
Compound	Tested on	Class
COc1cc(C2c3cc4c(cc3C(OC3OC5COC(C)OC5C(O)C3O)C3COC(=O)C23)OCO4)cc(OC)c1O (stereo not given) + Cc1cccc(N(C)C(=O)C2C(O)CCN2c2nc(C)cc(C(F)(F)F)c2C#N)c1	699152-130-R-J1-PDC complex spheroid viability	class 1
C#Cc1c(F)ccc2cc(O)cc(-c3ncc4c(N5CC6CCC(C5)N6)nc(OCC56CCCN5CC(F)C6)nc4c3F)c12 (stereo not given) + Nc1ccc(C#CCN(C(=O)Cc2ncc(C(F)(F)F)cc2C(F)(F)F)c2ccc(F)cc2)nn1	699152-130-R-J1-PDC complex spheroid viability	class 1
CC(C)n1c(=O)n(C)c2cnc3cc(F)c(-c4ccc(OCCCN5CCCCC5)nc4)cc3c21 + Nc1ccc(C#CCN(C(=O)Cc2ncc(C(F)(F)F)cc2C(F)(F)F)c2ccc(F)cc2)nn1	699152-130-R-J1-PDC complex spheroid viability	class 0

Lab log: compare recorded viability, T/C with 90%; is it strictly lower for CCc1cc2c(N3CCc4c(cc(Cn5ccnc5)cc4-c4cn(C)nc4C(F)(F)F)C3=O)ccnc2c(OC)n1 + Cc1cccc(N(C)C(=O)C2C(O)CCN2c2nc(C)cc(C(F)(F)F)c2C#N)c1 ?
class 0

Criterion: viability, T/C strictly below 90%. Is it met by O=c1[nH]cc(F)c(=O)[nH]1 + Nc1ccc(C#CCN(C(=O)Cc2ncc(C(F)(F)F)cc2C(F)(F)F)c2ccc(F)cc2)nn1 ?
class 0

###

Provide the reported pIC50 of each item.
- Tested on: 699152-130-R-J1-PDC complex spheroid viability
- Protocol summary: Anticancer human tumor 699152-130-R-J1-PDC cell line growth inhibition [POLQ];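 also: spheroids exposed to agents for 7 days before viability reading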
- Test context: curve of first compound; second compound 0.0316 µM
Answers are plain numbers, as −log10 of the molar value.

Molecule	pIC50
CC1COCCN1c1cc(C2(O)CC3CCC(C2)O3)c2cnn(-c3ccn[nH]3)c2n1 (stereo not drawn) + Cc1cccc(N(C)C(=O)C2C(O)CCN2c2nc(C)cc(C(F)(F)F)c2C#N)c1	5.70

Looking for the measured pIC50 of CC1COCCN1c1cc(C2(O)CC3CCC(C2)O3)c2cnn(-c3ccn[nH]3)c2n1 (stereo not drawn) + Nc1ccc(C#CCN(C(=O)Cc2ncc(C(F)(F)F)cc2C(F)(F)F)c2ccc(F)cc2)nn1 , can you help?
5.83

###

- Tested on: 699152-130-R-J1-PDC complex spheroid viability
- Protocol summary: Anticancer human tumor 699152-130-R-J1-PDC cell line growth inhibition [POLQ];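 also: spheroids exposed to agents for 7 days before viability reading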
- Test context: curve of first compound; second compound 0.0316 µM
pIC50: −log10 of the molar value.
Observation type: pIC50

The examples below pair each entry with its known result.
Compound	Meas value
CC1COCCN1c1cc(C2(S(C)(=N)=O)CC2)nc(-c2ccnc3[nH]ccc23)n1 (stereo unspecified) + Cc1cccc(N(C)C(=O)C2C(O)CCN2c2nc(C)cc(C(F)(F)F)c2C#N)c1	< 5.00
Nc1ccn(C2OC(CO)C(O)C2(F)F)c(=O)n1 (stereo unspecified) + Cc1cccc(N(C)C(=O)C2C(O)CCN2c2nc(C)cc(C(F)(F)F)c2C#N)c1	6.02

Please report pIC50 for every entry that follows.
1. CCc1c2c(nc3ccc(O)cc13)-c1cc3c(c(=O)n1C2)COC(=O)[C@]3(O)CC + Cc1cccc(N(C)C(=O)C2C(O)CCN2c2nc(C)cc(C(F)(F)F)c2C#N)c1
2. COc1cccc(OCCCN)c1-c1cc(Nc2cnc(C#N)cn2)n[nH]1 + Cc1cccc(N(C)C(=O)C2C(O)CCN2c2nc(C)cc(C(F)(F)F)c2C#N)c1
3. C#Cc1c(F)ccc2cc(O)cc(-c3ncc4c(N5CC6CCC(C5)N6)nc(OCC56CCCN5CC(F)C6)nc4c3F)c12 (stereo unspecified) + COC1C(OC(N)=O)C(O)C(Oc2ccc3c(O)c(NC(=O)c4ccc(O)c(CC=C(C)C)c4)c(=O)oc3c2C)OC1(C)C
4. CCCS(=O)(=O)Nc1ccc(F)c(C(=O)c2c[nH]c3ncc(-c4ccc(Cl)cc4)cc23)c1F + COC1C(OC(N)=O)C(O)C(Oc2ccc3c(O)c(NC(=O)c4ccc(O)c(CC=C(C)C)c4)c(=O)oc3c2C)OC1(C)C
5. CC1COCCN1c1cc(C2(S(C)(=N)=O)CC2)nc(-c2ccnc3[nH]ccc23)n1 (stereo unspecified) + Nc1ccc(C#CCN(C(=O)Cc2ncc(C(F)(F)F)cc2C(F)(F)F)c2ccc(F)cc2)nn1

7.41
< 6.00
> 7.50
< 5.00
< 5.00

For each listed entry, give its pIC50.
1. COc1cc(C2c3cc4c(cc3C(OC3OC5COC(C)OC5C(O)C3O)C3COC(=O)C23)OCO4)cc(OC)c1O (stereo unspecified) + COC1C(OC(N)=O)C(O)C(Oc2ccc3c(O)c(NC(=O)c4ccc(O)c(CC=C(C)C)c4)c(=O)oc3c2C)OC1(C)C
2. CNCc1ccc(-c2[nH]c3cc(F)cc4c3c2CCNC4=O)cc1 + Cc1cccc(N(C)C(=O)C2C(O)CCN2c2nc(C)cc(C(F)(F)F)c2C#N)c1

1: 5.40; 2: < 5.00

Lab note: each compound below needs its pIC50 filled in.
1. CC[C@@]1(O)C(=O)OCc2c1cc1n(c2=O)Cc2cc3c(CN(C)C)c(O)ccc3nc2-1 + Nc1ccc(C#CCN(C(=O)Cc2ncc(C(F)(F)F)cc2C(F)(F)F)c2ccc(F)cc2)nn1
2. CNCc1ccc(-c2[nH]c3cc(F)cc4c3c2CCNC4=O)cc1 + Nc1ccc(C#CCN(C(=O)Cc2ncc(C(F)(F)F)cc2C(F)(F)F)c2ccc(F)cc2)nn1

< 7.00
< 5.00

###

- Tested on: 699152-130-R-J1-PDC complex spheroid viability
- Protocol summary: Anticancer human tumor 699152-130-R-J1-PDC cell line growth inhibition [POLQ];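 also: spheroids exposed to agents for 7 days before viability reading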
- Test context: curve of first compound; second compound 1 µM
Exercise: for every item that follows, state its recorded IC50.

Solved entries (count: 5):
Molecule	IC50
Nc1ccn(C2OC(CO)C(O)C2(F)F)c(=O)n1 (stereo not given) + COC1C(OC(N)=O)C(O)C(Oc2ccc3c(O)c(NC(=O)c4ccc(O)c(CC=C(C)C)c4)c(=O)oc3c2C)OC1(C)C	264 nM
C=CC(=O)N1CCN(c2nc(=O)n(-c3c(C)ccnc3C(C)C)c3nc(-c4c(O)cccc4F)c(F)cc23)C(C)C1 (stereo not given) + Nc1ccc(C#CCN(C(=O)Cc2ncc(C(F)(F)F)cc2C(F)(F)F)c2ccc(F)cc2)nn1	> 10000 nM
O=C(c1cc(Cc2n[nH]c(=O)c3ccccc23)ccc1F)N1CCN(C(=O)C2CC2)CC1 + COC1C(OC(N)=O)C(O)C(Oc2ccc3c(O)c(NC(=O)c4ccc(O)c(CC=C(C)C)c4)c(=O)oc3c2C)OC1(C)C	< 31.6 nM
CC[C@@]1(O)C(=O)OCc2c1cc1n(c2=O)Cc2cc3c(CN(C)C)c(O)ccc3nc2-1 + Nc1ccc(C#CCN(C(=O)Cc2ncc(C(F)(F)F)cc2C(F)(F)F)c2ccc(F)cc2)nn1	> 100 nM
CC(C)n1c(=O)n(C)c2cnc3cc(F)c(-c4ccc(OCCCN5CCCCC5)nc4)cc3c21 + Cc1cccc(N(C)C(=O)C2C(O)CCN2c2nc(C)cc(C(F)(F)F)c2C#N)c1	> 10000 nM

# map each molecule to its IC50
1. CC(C)n1c(=O)n(C)c2cnc3cc(F)c(-c4ccc(OCCCN5CCCCC5)nc4)cc3c21 + COC1C(OC(N)=O)C(O)C(Oc2ccc3c(O)c(NC(=O)c4ccc(O)c(CC=C(C)C)c4)c(=O)oc3c2C)OC1(C)C
2. CCc1cc2c(N3CCc4c(cc(Cn5ccnc5)cc4-c4cn(C)nc4C(F)(F)F)C3=O)ccnc2c(OC)n1 + Nc1ccc(C#CCN(C(=O)Cc2ncc(C(F)(F)F)cc2C(F)(F)F)c2ccc(F)cc2)nn1
3. O=c1[nH]cc(F)c(=O)[nH]1 + COC1C(OC(N)=O)C(O)C(Oc2ccc3c(O)c(NC(=O)c4ccc(O)c(CC=C(C)C)c4)c(=O)oc3c2C)OC1(C)C
4. CCc1cc2c(N3CCc4c(cc(Cn5ccnc5)cc4-c4cn(C)nc4C(F)(F)F)C3=O)ccnc2c(OC)n1 + COC1C(OC(N)=O)C(O)C(Oc2ccc3c(O)c(NC(=O)c4ccc(O)c(CC=C(C)C)c4)c(=O)oc3c2C)OC1(C)C

1. < 31.6 nM
2. > 10000 nM
3. > 10000 nM
4. > 10000 nM

Consider the molecule shown here: COc1cccc(OCCCN)c1-c1cc(Nc2cnc(C#N)cn2)n[nH]1 + Nc1ccc(C#CCN(C(=O)Cc2ncc(C(F)(F)F)cc2C(F)(F)F)c2ccc(F)cc2)nn1 What is its recorded IC50?
> 1000 nM
